# interaction score per entry
# assay target: T1, 4H908-bA
# T1 chain: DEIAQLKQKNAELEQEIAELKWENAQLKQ
# protocol notes: two-hybrid library CCNG1;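 also: natural log of median RNA to DNA barcode read ratio; higher means stronger binding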

binder	result
DEIAQLKQKNAELEQEIAELKWENAQLKQ [4H908-bA]	0.539
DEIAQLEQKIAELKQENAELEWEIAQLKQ [4H338-bA]	-0.695
DEIAQLKQENAELKQEIAELKWKIAQLEQ [4H717-bA]	0.244
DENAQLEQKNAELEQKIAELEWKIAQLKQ [4H1446-bA]	-0.405
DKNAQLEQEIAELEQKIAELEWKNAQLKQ [4H3112-bA]	0.0545
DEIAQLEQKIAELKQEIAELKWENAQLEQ [4H331-bA]	-1.83
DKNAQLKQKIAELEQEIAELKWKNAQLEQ [4H3855-bA]	-0.51
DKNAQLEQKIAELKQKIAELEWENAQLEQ [4H3427-bA]	-0.823

[ask] interaction score for DEIAQLEQKNAELKQEIAELEWKIAQLKQ [4H454-bA] ?
[reply] -0.182

[ask] interaction score for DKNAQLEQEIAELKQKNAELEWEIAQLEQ [4H3185-bA] ?
[reply] -1.86

[ask] interaction score for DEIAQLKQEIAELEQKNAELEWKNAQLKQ [4H568-bA] ?
[reply] -1.26

[ask] interaction score for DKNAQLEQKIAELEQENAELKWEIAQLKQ [4H3354-bA] ?
[reply] -1.17

[ask] interaction score for DEIAQLKQKIAELEQENAELKWKIAQLEQ [4H797-bA] ?
[reply] -0.499

[ask] interaction score for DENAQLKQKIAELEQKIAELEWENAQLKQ [4H1828-bA] ?
[reply] -0.276

[ask] interaction score for DEIAQLKQEIAELKQENAELKWKNAQLEQ [4H607-bA] ?
[reply] -0.62

[ask] interaction score for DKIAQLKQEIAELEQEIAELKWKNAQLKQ [4H2576-bA] ?
[reply] 0.163

[ask] interaction score for DKNAQLKQKNAELEQKIAELEWEIAQLEQ [4H4001-bA] ?
[reply] -0.992

[ask] interaction score for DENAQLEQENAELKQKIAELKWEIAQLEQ [4H1257-bA] ?
[reply] -1.38
